System: SW620Mito
Assay: Neutral red uptake antiproliferative assay, MDR line SW620Mito
Format: cell-based, human
Conditions: exposure time 72 h, n = 3; ABCG2-overexpressing MDR line
endpoint.name: IC50 (µM)

CC(C)[C@H](N=Cc1ccccn1)c1nc2cc(Cl)ccc2c(=O)n1Cc1ccccc1.Cc1c(C)c(C)[c-](C)c1C.F[P-](F)(F)(F)(F)F.[Cl-].[Ir+3] [Compound 4d, [(Cp*)Ir((S)-2)Cl]PF6] = 0.365
CC(C)[C@@H](N=Cc1ccccn1)c1nc2cc(Cl)ccc2c(=O)n1Cc1ccccc1.Cc1ccc(C(C)C)cc1.F[P-](F)(F)(F)(F)F.[Cl-].[Ru+2] [Compound 3a, [(cym)Ru((R)-2)Cl]PF6] = 4.33
CC(C)[C@H](N=Cc1ccccn1)c1nc2cc(Cl)ccc2c(=O)n1Cc1ccccc1.Cc1ccc(C(C)C)cc1.F[P-](F)(F)(F)(F)F.[Cl-].[Os+2] [Compound 4b, [(cym)Os((S)-2)Cl]PF6] = 3.78
CC(C)[C@@H](N=Cc1ccccn1)c1nc2cc(Cl)ccc2c(=O)n1Cc1ccccc1.Cc1ccc(C(C)C)cc1.F[P-](F)(F)(F)(F)F.[Cl-].[Os+2] [Compound 3b, [(cym)Os((R)-2)Cl]PF6] = 0.748

I. CC(C)[C@@H](N=Cc1ccccn1)c1nc2cc(Cl)ccc2c(=O)n1Cc1ccccc1.Cc1c(C)c(C)[c-](C)c1C.F[P-](F)(F)(F)(F)F.[Cl-].[Rh+3] [Compound 3c, [(Cp*)Rh((R)-2)Cl]PF6]
II. CC(C)[C@H](N=Cc1ccccn1)c1nc2cc(Cl)ccc2c(=O)n1Cc1ccccc1.Cc1ccc(C(C)C)cc1.F[P-](F)(F)(F)(F)F.[Cl-].[Ru+2] [Compound 4a, [(cym)Ru((S)-2)Cl]PF6]
III. CC(C)[C@@H](N=Cc1ccccn1)c1nc2cc(Cl)ccc2c(=O)n1Cc1ccccc1.Cc1c(C)c(C)[c-](C)c1C.F[P-](F)(F)(F)(F)F.[Cl-].[Ir+3] [Compound 3d, [(Cp*)Ir((R)-2)Cl]PF6]
IV. CC(C)[C@H](N=Cc1ccccn1)c1nc2cc(Cl)ccc2c(=O)n1Cc1ccccc1.Cc1c(C)c(C)[c-](C)c1C.F[P-](F)(F)(F)(F)F.[Cl-].[Rh+3] [Compound 4c, [(Cp*)Rh((S)-2)Cl]PF6]
Ranking field: IC50; order: falling. Return value: ordered labels per request.
II, IV, I, III

====

Tested on: SW620 cells
Experiment: Cell cycle distribution by flow cytometry, SW620
Assay type: cell-based, human
Conditions: SW620, 48 h, concentration equal to IC75 of (S)-1 / (R)-1; mean ± SEM, n = 3
endpoint.name: Cell cycle fraction G2/M, 48 h (%)
Give just the numeric value; % need not be written.

// known answers, use as guide
CC(C)[C@H](N=Cc1ccccn1)c1nc2cc(Cl)ccc2c(=O)n1Cc1ccccc1.Cc1c(C)c(C)[c-](C)c1C.F[P-](F)(F)(F)(F)F.[Cl-].[Ir+3] [Compound 4d, [(Cp*)Ir((S)-2)Cl]PF6] = 40.6
CC(C)[C@H](N=Cc1ccccn1)c1nc2cc(Cl)ccc2c(=O)n1Cc1ccccc1.Cc1c(C)c(C)[c-](C)c1C.F[P-](F)(F)(F)(F)F.[Cl-].[Rh+3] [Compound 4c, [(Cp*)Rh((S)-2)Cl]PF6] = 43.8
CC(C)[C@H](N=Cc1ccccn1)c1nc2cc(Cl)ccc2c(=O)n1Cc1ccccc1.Cc1ccc(C(C)C)cc1.F[P-](F)(F)(F)(F)F.[Cl-].[Ru+2] [Compound 4a, [(cym)Ru((S)-2)Cl]PF6] = 39.1

In the following, a different compound is considered.
Kindly note the recorded Cell cycle fraction G2/M, 48 h for CC(C)[C@@H](N)c1nc2cc(Cl)ccc2c(=O)n1Cc1ccccc1 [(R)-1, reference compound] , which is 42.1

The values you see were collected from paper PMC11044151.
